# Test system: SpTbr T-box DNA-binding domain (GST fusion);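 further: protein at 200 nM in PBS on universal double-stranded arrays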
# Sequence: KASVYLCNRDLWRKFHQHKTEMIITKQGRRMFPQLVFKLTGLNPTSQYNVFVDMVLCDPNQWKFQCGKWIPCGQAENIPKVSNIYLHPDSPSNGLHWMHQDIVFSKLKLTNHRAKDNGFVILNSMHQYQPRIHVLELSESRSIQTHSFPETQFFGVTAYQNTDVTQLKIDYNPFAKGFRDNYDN
# Test name: PBM E-score of 8-mer (E-score (dimensionless, -0.5 to 0.5)); Tbr is Tbrain of the sea star Patiria miniata (Pm) or the sea urchin Strongylocentrotus purpuratus (Sp); higher = stronger binding preference
# Condition summary: the construct has about 5 more residues each side
Whole data set: some 33,000 sequences, median “E-score (dimensionless, -0.5 to 0.5)” near -0.046, cut for the highest 2% near 0.36. The sample holds the highest values, similar sequences and a random draw of the others, so the mix is not that of the screen.
Quantity: PBM E-score of 8-mer
Enter the number alone.

// worked examples, PBM E-score of 8-mer included
INSERT INTO measurements (item_sequence, value_reported) VALUES
  ('ATGTGTCG', 0.385),
  ('GCGCGACA', 0.344),
  ('GCGCGAAC', 0.439),
  ('ATCACCTC', 0.387);

Moving on to the next sequence.
Incoming: Retrieve PBM E-score of 8-mer measured for ACGCGAAA and print it.
Outgoing: 0.138
